# SYSTEM: human α2C‐adrenoceptor (Homo sapiens, UniProt P18825)
# Sequence (P18825 whole entry): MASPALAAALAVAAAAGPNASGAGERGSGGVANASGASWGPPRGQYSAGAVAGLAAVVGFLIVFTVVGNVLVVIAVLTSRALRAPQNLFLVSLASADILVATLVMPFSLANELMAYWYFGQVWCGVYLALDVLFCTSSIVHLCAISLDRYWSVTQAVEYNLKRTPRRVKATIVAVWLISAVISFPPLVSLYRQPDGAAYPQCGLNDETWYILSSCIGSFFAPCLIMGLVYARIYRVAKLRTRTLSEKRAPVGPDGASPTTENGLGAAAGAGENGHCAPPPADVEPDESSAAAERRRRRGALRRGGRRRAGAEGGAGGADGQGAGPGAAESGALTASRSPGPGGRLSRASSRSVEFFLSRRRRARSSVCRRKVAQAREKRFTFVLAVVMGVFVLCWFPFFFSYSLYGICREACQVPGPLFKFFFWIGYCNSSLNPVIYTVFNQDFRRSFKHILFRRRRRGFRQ
# METHOD_DESCRIPTION: ^3H‐rauwolscine whole cell competition binding, CHO‐α2C cells
ASSAY_READOUT: Log KD α2C
// no unit, no text: just the number

Inquiry: Provide the documented Log KD α2C with human α2C‐adrenoceptor (Homo sapiens, UniProt P18825) as the system for COc1cccc(OC)c1OCCNCC1CSc2ccccc2O1 (stereo not drawn)
Reply text: −7.75

Inquiry: Provide the documented Log KD α2C with human α2C‐adrenoceptor (Homo sapiens, UniProt P18825) as the system for COc1ccccc1N1CCN(CCCNc2c(C)c(=O)n(C)c(=O)n2C)CC1
Reply text: −5.81

Inquiry: Provide the documented Log KD α2C with human α2C‐adrenoceptor (Homo sapiens, UniProt P18825) as the system for CN1CC[C@]2(CCN3CCc4c(oc5ccccc45)[C@@H]3C2)N(C)C1=O
Reply text: -9.82

Inquiry: Provide the documented Log KD α2C with human α2C‐adrenoceptor (Homo sapiens, UniProt P18825) as the system for CC(C)(Cc1c[nH]c2ccc(Cl)cc12)NCCOc1ccccc1OCC1CC1
Reply text: −6.35

----------
# SYSTEM: human α2B‐adrenoceptor (Homo sapiens)
# Sequence (P18089 1-450): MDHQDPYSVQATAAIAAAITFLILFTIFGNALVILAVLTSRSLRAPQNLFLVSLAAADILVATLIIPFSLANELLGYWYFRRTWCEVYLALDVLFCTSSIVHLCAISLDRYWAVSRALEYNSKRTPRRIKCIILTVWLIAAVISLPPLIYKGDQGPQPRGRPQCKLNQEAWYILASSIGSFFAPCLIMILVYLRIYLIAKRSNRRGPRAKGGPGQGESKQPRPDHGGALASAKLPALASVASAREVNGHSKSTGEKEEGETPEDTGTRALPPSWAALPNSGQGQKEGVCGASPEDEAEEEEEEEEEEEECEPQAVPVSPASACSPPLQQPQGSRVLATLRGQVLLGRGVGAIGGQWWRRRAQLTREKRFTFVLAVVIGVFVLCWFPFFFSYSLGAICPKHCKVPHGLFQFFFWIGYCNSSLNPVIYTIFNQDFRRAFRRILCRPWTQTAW
# METHOD_DESCRIPTION: cell-based
pKd: −log10 of the molar value.
Would you mind labelling by pKd? At or over 6 is Criterion met, under is Criterion not met.

Inquiry: Record CCn1ccnc1CC1COc2ccccc2O1 (centres unmarked) ; criterion: pKd no lower than 6. Met?
Reply text: Criterion met

Inquiry: Record OCCN1CCN(CCC=C2c3ccccc3Sc3ccc(C(F)(F)F)cc32)CC1 ; criterion: pKd no lower than 6. Met?
Reply text: Criterion met

Inquiry: Record CN(CCCN1c2ccccc2CCc2ccccc21)CC(=O)c1ccc(Cl)cc1 ; criterion: pKd no lower than 6. Met?
Reply text: Criterion not met

Inquiry: Record CN(C)CC/C=C1\c2ccccc2CSc2ccccc21 [dosulepin] ; criterion: pKd no lower than 6. Met?
Reply text: Criterion met

Inquiry: Record Cc1ccc(Sc2ccccc2N2CCNCC2)c(C)c1 ; criterion: pKd no lower than 6. Met?
Reply text: Criterion not met

Inquiry: Record O=C1CCC(=O)N1C[C@H]1CC[C@H]2CN(c3ncccn3)CCN2C1 [sunepitron] ; criterion: pKd no lower than 6. Met?
Reply text: Criterion met

Inquiry: Record O=C(NC1CCN(CCc2c[nH]c3ccccc23)CC1)c1ccccc1 ; criterion: pKd no lower than 6. Met?
Reply text: Criterion not met

Inquiry: Record CC(CN(C)C)CN1c2ccccc2CCc2ccccc21 (centres unmarked) ; criterion: pKd no lower than 6. Met?
Reply text: Criterion met
